- Experiment description: Plasma pharmacokinetics in healthy volunteers (LC-MS/MS, non-compartmental analysis)
- Reported conditions: human, plasma, po, 400 mg, Tmax, celecoxib levels in plasma; C alone, celecoxib 400 mg single oral dose; median (min, max)
Measurement label: Tmax (h)

1. Cc1ccc(-c2cc(C(F)(F)F)nn2-c2ccc(S(N)(=O)=O)cc2)cc1 [Celecoxib, celecoxib]
2

* * *

- Experiment description: Plasma pharmacokinetics in healthy volunteers (LC-MS/MS, non-compartmental analysis)
- Reported conditions: human, plasma, po, AUC(0–8), celecoxib levels in plasma; RIF + C, celecoxib 400 mg with rifampicin 10 mg/kg oral; geometric mean (min, max)
Measurement label: AUC(0-t) (ng·h/mL)

1. Cc1ccc(-c2cc(C(F)(F)F)nn2-c2ccc(S(N)(=O)=O)cc2)cc1
4530
